Measurement Notes: Selectivity index, ratio of CC50 for human MT4 cells to EC50 for HIV1 3B
Assay type: toxicity, cell-based
Setup Conditions: read-out: Ratio CC50/EC50
We use 10 as the dividing line for selectivity ratio: on or above the line is yes (1), below is no (0).

Worked set:
1. Cc1cc(C)cc(S(=O)(=O)n2c(=O)[nH]c3cc(F)c(Cl)cc32)c1 = yes (1)
2. Cc1ccc2[nH]c(=O)n(S(=O)(=O)c3cc(F)cc(F)c3)c2c1 = yes (1)
3. O=c1[nH]c2ccc(Cl)cc2n1S(=O)(=O)c1c(F)cccc1F = yes (1)
4. O=c1[nH]c2cc(F)c(Cl)cc2n1Cc1c(F)cccc1F = no (0)

Then this compound:
Does the reported selectivity ratio for Cc1cc(C)cc(Cn2c(=O)[nH]c3ccc(C)cc32)c1 fall at or above the 10 mark? yes (1)

These measurements were taken from ChEMBL document CHEMBL1155794.
